Molecular target: panel of 255 wild-type kinases (Homo sapiens)
Sequence (P51451 whole entry): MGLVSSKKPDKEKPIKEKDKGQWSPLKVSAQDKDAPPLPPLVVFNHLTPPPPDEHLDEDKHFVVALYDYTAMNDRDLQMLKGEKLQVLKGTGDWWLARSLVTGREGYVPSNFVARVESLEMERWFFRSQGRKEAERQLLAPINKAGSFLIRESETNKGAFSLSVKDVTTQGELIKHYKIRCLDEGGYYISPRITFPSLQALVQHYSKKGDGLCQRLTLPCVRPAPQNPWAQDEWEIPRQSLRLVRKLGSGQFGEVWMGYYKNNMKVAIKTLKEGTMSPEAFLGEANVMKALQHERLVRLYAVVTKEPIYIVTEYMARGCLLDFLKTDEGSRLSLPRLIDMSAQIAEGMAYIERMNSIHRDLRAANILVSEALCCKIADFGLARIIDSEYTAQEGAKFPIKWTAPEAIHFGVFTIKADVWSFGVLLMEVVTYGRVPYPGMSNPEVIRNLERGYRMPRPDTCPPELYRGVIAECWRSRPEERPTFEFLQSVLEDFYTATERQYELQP
Test: Kinase panel profiling at 1 µmol/L (MSA or IMAP), percentage inhibition
Format: biochemical
Details: BLK kinase assay; 1 µmol/L single concentration; read-out: %-inhibition BLK
Each entry below carries its reported inhibition at 1 µM.
Your answer is read as %, so omit the unit and give the number.

Here is how some compounds turned out for inhibition at 1 µM.
Cn1cnc2c(F)c(Nc3ccc(Br)cc3F)c(C(=O)NOCCO)cc21	10
CCN1C(=O)N(c2c(F)c(OC)cc(OC)c2F)Cc2cnc3[nH]c(CN4CCOCC4)cc3c21	27
O=C(Nc1cnn2ccc(N3CCC[C@@H]3c3cc(F)ccc3F)nc12)N1CC[C@H](O)C1	-4

Query: Item `Cn1cc(-c2cc3c(N4CCN(c5ncc([C@@](C)(N)c6ccc(F)cc6)cn5)CC4)ncnn3c2)cn1` : provide inhibition at 1 µM
Result: 50
